assay_notes: Solubility in DPBS (A280 of supernatant)
Assay type: physicochemical
condition: DPBS; read-out: solubility
measured_attribute: solubility thermodynamic
The reply should consist of the numeric value with the unit placed after it.

*Q* Bench note: what solubility thermodynamic did CC[C@H](C)[C@@H]1NC(=O)[C@H](Cc2c[nH]cn2)NC(=O)[C@H](C)NC(=O)[C@H](CC(=O)O)NC(=O)[C@H](CC(C)C)NC(=O)[C@H]([C@@H](C)CC)NC(=O)[C@](C)(NC(=O)[C@H](C)NC(C)=O)CCCCCCC=CCOC(=O)N2CC[C@@](C(=O)N[C@@H](CCCNC(=N)N)C(=O)N[C@H](C(=O)N[C@@H](Cc3c[nH]c4ccccc34)C(N)=O)C(C)C)(C2)NC1=O (single isomer, unassigned) [FPO217c, Ac-AR8ILDAHIMBRVW (SEQ ID NO: 280)] show?
*A* 7 µM
